Entry source: patent US12344610B2

System: HEK293 clonal cell line overexpressing APOL1 G1
assay-explanation: APOL1 G1 HEK293 cell rescue assay (Example B3)
Format: cell-based
test-settings: Homo sapiens, HEK293, HEK293 clonal line overexpressing APOL1 G1; geometric mean of at least 2 runs; † = single run; ¥ = concentration at 50% rescue estimated (no sigmoidal curve)
quantity-name: EC50 (nM)
One number for each entry, in nM.

Consider the worked cases shown below.
{"molecule": "C[C@]1(O)C[C@@H](N2C(=O)CCc3cc(OCCN4CCC5(CC4)C(=O)Nc4ccc(C(F)F)cc45)cnc32)C1 [Compound 274]", "target-or-test-system": "HEK293 clonal cell line overexpressing APOL1 G1", "EC50 / nM": 99.9}
{"molecule": "C[C@]1(O)C[C@@H](n2ccc3cc(OCCN4CCC5(CC4)C(=O)Nc4ccc(C#N)cc45)cnc32)C1 [Compound 410]", "target-or-test-system": "HEK293 clonal cell line overexpressing APOL1 G1", "EC50 / nM": 93.3}
{"molecule": "CC(c1c(F)cc(OCCN2CCC3(CC2)C(=O)Nc2ccc(Cl)cc23)cc1F)S(C)(=O)=O (stereo not shown) [Compound 141]", "target-or-test-system": "HEK293 clonal cell line overexpressing APOL1 G1", "EC50 / nM": 204}

Lab note: next molecule to report on.
Look up EC50 for this molecule: CS(=O)(=O)CCCn1ncc2cc(OCCN3CCC4(CC3)C(=O)Nc3ccc(Cl)cc34)ccc21 [Compound 14]
476

----------
Tested on: HEK293 cells overexpressing APOL1 G2
assay-explanation: APOL1 G2 HEK293 cell rescue assay (reversal of cell death caused by overexpression of APOL1)
Type: cell-based
test-settings: Homo sapiens, HEK293, HEK293 overexpressing APOL1 G2; geometric mean of at least 2 assay runs; † = single assay run
Experimental: Unless otherwise specified, EC50 values are reported as the geometric mean of at least 2 assay runs on separate days. Each run represents the average of a technical replicate, where each compound was assayed twice in the same plate. A superscript t symbol indicates a value from the average of a technical replicate from a single assay run, where each compound was assayed twice in the same plate. […]
quantity-name: pEC50
One number for each entry, as −log10 of the molar value.

Record pEC50 per entry; entries follow.
1. CN(C)c1ncc(OCCN2CCC3(CC2)C(=O)Nc2ccc(Cl)cc23)cn1
2. Cn1c(=O)oc2cc(OCCN3CCC4(CC3)C(=O)Nc3ccc(C#N)cc34)ccc21
3. CC(C)(O)c1ncc(OCCN2CCC3(CC2)C(=O)Nc2ccc(Cl)cc23)cn1
4. CS(=O)(=O)C1(c2ccc(OCCN3CCC4(CC3)C(=O)N(CCO)c3ccc(Cl)cc34)cc2)COC1
5. CS(=O)(=O)C1(c2ncc(OCCN3CCC4(CC3)C(=O)Nc3ccc(C#N)cc34)cc2F)CC1

1. 6.81
2. 6.82
3. 7.07
4. 7.12
5. 7.00

----------
target-or-test-system: APOL1 G2 (Homo sapiens, UniProt O14791, DEL388-389)
Construct: expressed in transfected cells; host or cells: HEK293 T-REx clonal line stably expressing GCaMP6f (HEK T-REx/GCaMP6f/APOL1 G2 K6.3), doxycycline induced
Sequence (O14791 with tags, fused parts or gaps DEL388-389): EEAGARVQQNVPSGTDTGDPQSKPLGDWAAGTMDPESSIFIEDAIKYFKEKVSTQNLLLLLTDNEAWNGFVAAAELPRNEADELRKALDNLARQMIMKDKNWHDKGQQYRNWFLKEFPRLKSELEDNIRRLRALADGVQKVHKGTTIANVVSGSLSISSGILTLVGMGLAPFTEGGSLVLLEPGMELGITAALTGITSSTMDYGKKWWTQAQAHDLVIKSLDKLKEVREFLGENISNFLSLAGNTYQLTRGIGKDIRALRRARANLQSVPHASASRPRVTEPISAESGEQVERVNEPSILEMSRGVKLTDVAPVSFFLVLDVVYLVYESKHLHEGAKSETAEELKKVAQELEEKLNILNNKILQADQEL
assay-explanation: APOL1-mediated calcium transport (calcium influx) assay, HEK T-REx/GCaMP6f/APOL1 G2 K6.3 cells, FLIPR TETRA
Format: cell-based
test-settings: prevention of calcium influx; geometric mean of at least 2 assay runs; † = average of a technical replicate from a single assay run
quantity-name: AC50 (nM)
Answers are plain numbers, in nM.

Look over these answered cases.
{"compound": "CS(=O)(=O)CCCn1ncc2cc(OCCN3CCC4(CC3)C(=O)Nc3ccc(Cl)cc34)ccc21 [Compound 14]", "readout-units": "nM", "AC50": 704}
{"compound": "O=C(c1ccc(OCCN2CCC3(CC2)C(=O)Nc2ccc(Cl)cc23)cc1F)N1CC2(C1)CS(=O)(=O)C2 [Compound 239]", "readout-units": "nM", "AC50": 1540}
{"compound": "COC(=O)C1(S(=O)(=O)c2ccc(OCCN3CCC4(CC3)C(=O)Nc3ccc(Cl)cc34)cc2)CC1 [Compound 91]", "readout-units": "nM", "AC50": 739}
{"compound": "CS(=O)(=O)c1ccc(OCCN2CCC3(CC2)C(=O)N(CCO)c2ccc(Cl)cc23)cc1 [Compound 18]", "readout-units": "nM", "AC50": 240}
{"compound": "[2H]C([2H])([2H])N1C(=O)C2(CCN(CCOc3cnc4c(c3)CCC(=O)N4[C@H]3C[C@@](C)(O)C3)CC2)c2cc(Cl)ccc21 [Compound 419]", "readout-units": "nM", "AC50": 383}

Provide reported AC50 for each item, in the same order as listed.
1. CS(=O)(=O)c1ccc(OCCN2CCC3(CC2)C(=O)Nc2ccc(C#N)cc23)cc1F [Compound 74]
2. Cn1c(=O)[nH]c2cc(OCCN3CCC4(CC3)C(=O)Nc3ccc(Cl)cc34)ccc21 [Compound 88]
3. CC(c1c(F)cc(OCCN2CCC3(CC2)C(=O)Nc2ccc(C#N)cc23)cc1F)S(C)(=O)=O (centres unmarked) [Compound 137]

1: 781; 2: 698; 3: 597

----------
Test system: HEK293 clonal cell line overexpressing APOL1 G1
assay-explanation: APOL1 G1 HEK293 cell rescue assay (Example B3)
Assay type: cell-based
test-settings: Homo sapiens, HEK293, HEK293 clonal line overexpressing APOL1 G1; geometric mean of at least 2 runs; † = single run; ¥ = concentration at 50% rescue estimated (no sigmoidal curve)
Experimental: Compounds were also assayed in a HEK293 clonal cell line overexpressing APOL1 G1 by a method similar to that shown in Example B2 above. Unless otherwise specified, EC50 values are reported as the geometric mean of at least 2 assay runs on separate days. Each run represents the average of a technical replicate, where each compound was assayed twice in the same plate. […]
Kindly supply the reported EC50 values for the records listed here.
One number for each entry, in nM.

Below: 2 compounds and their reported EC50.
{"molecule": "O=C1CCc2cc(OCCN3CCC4(CC3)C(=O)Nc3ccc(Cl)cc34)ccc2N1[C@H]1C[C@H](O)C1", "EC50 (nM)": 155}
{"molecule": "CC1(O)CC2(CN(c3ncc(OCCN4CCC5(CC4)C(=O)Nc4ccc(Cl)cc45)cn3)C2)C1", "EC50 (nM)": 95.5}

Looking for the measured EC50 of [2H]C([2H])([2H])N1C(=O)C2(CCN(CCOc3cnc4c(c3)CCC(=O)N4CC(C)(C)O)CC2)c2cc(Cl)ccc21 , can you help?
104

----------
System: HEK293 cells overexpressing APOL1 G2
assay-explanation: APOL1 G2 HEK293 cell rescue assay (reversal of cell death caused by overexpression of APOL1)
Format: cell-based
test-settings: Homo sapiens, HEK293, HEK293 overexpressing APOL1 G2; geometric mean of at least 2 assay runs; † = single assay run
Just a reminder that ties go to FALSE: only EC50 strictly below 50 nM counts as TRUE.

{"compound": "Cn1c(=O)[nH]c2cc(OCCN3CCC4(CC3)C(=O)Nc3ccc(Cl)cc34)ccc21 [Compound 88]", "class-assignment": "FALSE"}
{"compound": "C[C@]1(O)C[C@@H](n2cnc3cc(OCCN4CCC5(CC4)C(=O)Nc4ccc(C#N)cc45)cc(F)c32)C1 [Compound 455]", "class-assignment": "FALSE"}
{"compound": "O=C1NCC2c3ccc(OCCN4CCC5(CC4)C(=O)Nc4ccc(Cl)cc45)cc3CCN12 (single isomer, unassigned) [Compound 116]", "class-assignment": "FALSE"}
{"compound": "O=C1Cc2cc(OCCN3CCC4(CC3)C(=O)Nc3ccc(Cl)cc34)cc(F)c2N1 [Compound 256]", "class-assignment": "TRUE"}
{"compound": "CS(=O)(=O)c1ccc(OCCN2CCC3(CC2)C(=O)N(CCO)c2ccc(Br)cc23)cc1 [Compound 24]", "class-assignment": "FALSE"}
{"compound": "CS(=O)(=O)C1(c2ccc(OCCN3CCC4(CC3)C(=O)Nc3ccc(Cl)cc34)cc2)COC1 [Compound 195]", "class-assignment": "TRUE"}
{"compound": "CC(O)c1ncc(OCCN2CCC3(CC2)C(=O)Nc2ccc(Cl)cc23)cc1C(F)(F)F (single isomer, unassigned) [Compound 291]", "class-assignment": "TRUE"}
{"compound": "C[C@]1(O)C[C@@H](N2C(=O)OCc3cc(OCCN4CCC5(CC4)C(=O)Nc4ccc(Cl)cc45)cnc32)C1 [Compound 289]", "class-assignment": "TRUE"}
{"compound": "O=C1Nc2ccc(Cl)cc2C12CCN(CCOc1ccc(S(=O)(=O)CCO)cc1)CC2 [Compound 198]", "class-assignment": "FALSE"}
{"compound": "CS(=O)(=O)CCCS(=O)(=O)c1ccc(OCCN2CCC3(CC2)C(=O)Nc2ccc(Cl)cc23)cc1 [Compound 41]", "class-assignment": "FALSE"}

For N#Cc1ccc2c(c1)C1(CCN(CCOc3ccc4c(c3)CCN3C(=O)NCC43)CC1)C(=O)N2 (single isomer, unassigned) [Compound 119] , is the recorded EC50 below the cut-off of 50 nM?
FALSE

I'd appreciate it if you could check whether CS(=O)(=O)c1ccc(OCCN2CCC3(CC2)C(=O)Nc2ccc(C#N)cc23)cc1Cl [Compound 156] has EC50 smaller than 50 nM.
FALSE

EC50 under 50 nM? Item: O=C1CCc2cc(OCCN3CCC4(CC3)C(=O)Nc3ccc(Cl)cc34)ccc2N1[C@H]1C[C@@H](O)C1 [Compound 114]
TRUE

Lab note: EC50 threshold 50 nM. Does this compound come in strictly under it? CC(C)N1C(=O)CCc2cc(OCCN3CCC4(CC3)C(=O)Nc3ccc(Cl)cc34)ccc21 [Compound 97]
TRUE

Is EC50 strictly under 50 nM for the entry Cc1cc(OCCN2CCC3(CC2)C(=O)Nc2ccc(Cl)cc23)ccc1S(C)(=O)=O [Compound 110] ?
TRUE

Dear reviewer, please state whether CC(C)(CO)c1ncc(OCCN2CCC3(CC2)C(=O)Nc2ccc(C#N)cc23)cn1 [Compound 432] has EC50 strictly beneath 50 nM.
FALSE

Please state whether EC50 is below 50 nM for CS(=O)(=O)c1ccc(OCCN2CCC3(CC2)C(=O)Nc2ccc(Cl)cc23)cc1OC(F)F [Compound 163]
TRUE

Dear reviewer, please state whether O=C(c1ccc(OCCN2CCC3(CC2)C(=O)Nc2ccc(Cl)cc23)cc1F)N1CC(O)C1 [Compound 235] has EC50 strictly beneath 50 nM.
FALSE
